# target: recombinant human MAO-B (monoamine oxidase-B) (Homo sapiens)
# Construct: purchased Sigma-Aldrich
# Sequence (P27338 1-520): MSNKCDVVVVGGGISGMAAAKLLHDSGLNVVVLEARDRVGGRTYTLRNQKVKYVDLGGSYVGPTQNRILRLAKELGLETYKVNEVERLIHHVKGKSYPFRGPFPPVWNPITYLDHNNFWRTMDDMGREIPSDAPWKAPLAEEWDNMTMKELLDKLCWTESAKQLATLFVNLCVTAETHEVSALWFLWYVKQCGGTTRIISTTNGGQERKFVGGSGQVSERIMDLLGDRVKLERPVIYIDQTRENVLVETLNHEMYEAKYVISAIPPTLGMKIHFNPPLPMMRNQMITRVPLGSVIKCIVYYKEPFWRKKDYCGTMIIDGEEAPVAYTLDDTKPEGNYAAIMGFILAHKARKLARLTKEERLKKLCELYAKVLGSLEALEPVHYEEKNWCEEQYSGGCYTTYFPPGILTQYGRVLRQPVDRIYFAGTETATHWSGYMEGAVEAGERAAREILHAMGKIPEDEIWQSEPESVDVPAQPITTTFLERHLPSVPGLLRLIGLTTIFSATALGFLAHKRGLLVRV
# testProtocol: Activity evaluation on recombinant human MAO-B (Amplex Red/HRP-coupled assay, 1 mM benzylamine substrate)
# Type: biochemical
# conditionSet: 1 mM benzylamine substrate, read-out: Inhibitory Activity (IC50, nM) MAO-B
# Protocol: The compounds according to the present technology were evaluated in terms of activity on recombinant human VAP-1 (R&D systems) by measuring the level of hydrogen peroxide in horseradish peroxidase (HRP)-coupled reaction using Amplex Red Hydrogen Peroxide Assay Kit (Molecular Probes, Invitrogen, USA). […] The inhibitory effect of the compounds was measured as a decrease (%) in the signal rate as compared to the control group without any inhibitor (only diluted DMSO). […]
Counter-ions that a name gives are not always drawn.
Below, each entry is listed alongside its reported IC50.
Please give a number only; it is taken to be in nM.

For orientation, consider the following solved cases.
# compound, unitsSymbol, IC50
measured = [
    ("CCn1cc(-c2ccc3cc(Cn4cnn(CC(CN)=C(F)F)c4=O)sc3c2)cn1 [Example 204, Trifluoroacetate]", "nM", 89900),
    ("Cc1cc(C#Cc2cnc3c(c2)OCC(=O)N3)cnc1-n1cnn(CC(CN)=C(F)F)c1=O [Example 248, trifluoroacetate]", "nM", 14000),
    ("CN(C)c1ccc(-c2cccc(Cn3cnn(CC(CN)=C(F)F)c3=O)c2)cn1 [Example 273, Trifluoroacetate]", "nM", 2900),
    ("CCn1cc(-c2ccc(-c3csc(Cn4cnn(CC(CN)=C(F)F)c4=O)c3)cc2)cn1 [Example 288, Trifluoroacetate]", "nM", 3230),
    ("NCC(Cn1ncn(Cc2cc3cc(-c4ccc5c(c4)OCO5)ccc3s2)c1=O)=C(F)F [Example 209, Trifluoroacetate]", "nM", 5180),
]

Now for a further compound.
Asked: Recorded IC50 of CCn1cc(-c2cccc(Cn3cnn(CC(CN)=C(F)F)c3=O)c2)cn1 [Example 271, Trifluoroacetate] , please.
Given back: 1590

* * *

# target: recombinant human MAO-B (monoamine oxidase-B) (Homo sapiens, UniProt P27338)
# Construct: purchased Sigma-Aldrich
# testProtocol: Activity evaluation on recombinant human MAO-B (Amplex Red/HRP-coupled assay, 1 mM benzylamine substrate)
# Format: biochemical
# conditionSet: 1 mM benzylamine, read-out: Inhibitory Activity (IC50, nM) MAO-B
Where a name gives a salt, the structure may show the parent alone.
reportedEndpoint: IC50 (nM)
Supply the numeric figure in nM, leaving out any unit text.

# molecule, IC50 / nM
data = [
    ("NCC(Cn1ncn(Cc2ccc(-c3ccc4c(c3)COC(=O)N4)s2)c1=O)=C(F)F [Example 143, Trifluoroacetate]", 6400),
    ("NCC(Cn1ncn(Cc2ccc(Br)s2)c1=O)=C(F)F [Example 97, Trifluoroacetate]", 20000),
    ("Cc1cc(-n2cnn(CC(CN)=C(F)F)c2=O)cnc1-c1ccc2c(c1)OCO2 [Example 79, Trifluoroacetate]", 910),
]

Then this molecule:
Asked: Please state recorded IC50 (tested on recombinant human MAO-B (monoamine oxidase-B) (Homo sapiens, UniProt P27338)) of NCC(Cn1ncn(-c2ncc(-c3ccc4c(c3)OCO4)cc2F)c1=O)=C(F)F [Example 85, Trifluoroacetate]
Given back: 130
